Hello, the source for this data is patent US5356903A, in case you need it.

- experimental-system: human topoisomerase II (Homo sapiens)
- Construct: Topo II was purified from late log phase suspension cultures of HeLa WIS; endogenous in cells; host or cells: HeLa WIS (late log phase suspension cultures); enzyme purified from the cells
- protocol-notes: Mammalian Topoisomerase II Inhibition Assay (stabilization of DNA-topo II covalent complex)
- Assay type: biochemical
- condition-label: footnote *: bell shaped dose response; read-out: Topo II EC50 (bell shaped dose response)
- Description: Mammalian Topoisomerase II Inhibition Assay Procedure The inhibition of human topoisomerase II (hereafter topo II) was quantitated by a procedure adapted from that described by Trask et al., EMBO J., 3, 671-676 (1984). The assay quantitates the amount of topo II covalently complexed by DNA at equilibrium during a topo II reaction. […] The results obtained for representative compounds of the invention in the human topoisomerase II assay procedure expressed as EC50 s (μM) are presented in Table 3.
observation-type: EC50

Example compounds with recorded EC50:
[
  {
    "compound-structure": "Cc1cc(-c2c(F)cc3c(c2F)N(C2CC2)C=CC3=C(C#N)C#N)cc(C)n1",
    "EC50": "6.3 µM"
  },
  {
    "compound-structure": "CON=c1ccn(C2CC2)c2c(F)c(-c3cc(C)nc(C)c3)c(F)cc12",
    "EC50": "2.6 µM"
  },
  {
    "compound-structure": "Cc1ccc(S(=O)(=O)N=c2ccn(C3CC3)c3c(F)c(-c4cc(C)nc(C)c4)c(F)cc23)cc1",
    "EC50": "45 µM"
  }
]

Enter reported EC50 observed with human topoisomerase II (Homo sapiens) for CCOC(=O)C(C#N)=C1C=CN(C2CC2)c2c1cc(F)c(-c1cc(C)nc(C)c1)c2F
4.8 µM

* * *

- experimental-system: human topoisomerase II (Homo sapiens, UniProt P11388)
- Construct: Topo II was purified from late log phase suspension cultures of HeLa WIS; endogenous in cells; host or cells: HeLa WIS (late log phase suspension cultures); enzyme purified from the cells
- Sequence (P11388 whole entry): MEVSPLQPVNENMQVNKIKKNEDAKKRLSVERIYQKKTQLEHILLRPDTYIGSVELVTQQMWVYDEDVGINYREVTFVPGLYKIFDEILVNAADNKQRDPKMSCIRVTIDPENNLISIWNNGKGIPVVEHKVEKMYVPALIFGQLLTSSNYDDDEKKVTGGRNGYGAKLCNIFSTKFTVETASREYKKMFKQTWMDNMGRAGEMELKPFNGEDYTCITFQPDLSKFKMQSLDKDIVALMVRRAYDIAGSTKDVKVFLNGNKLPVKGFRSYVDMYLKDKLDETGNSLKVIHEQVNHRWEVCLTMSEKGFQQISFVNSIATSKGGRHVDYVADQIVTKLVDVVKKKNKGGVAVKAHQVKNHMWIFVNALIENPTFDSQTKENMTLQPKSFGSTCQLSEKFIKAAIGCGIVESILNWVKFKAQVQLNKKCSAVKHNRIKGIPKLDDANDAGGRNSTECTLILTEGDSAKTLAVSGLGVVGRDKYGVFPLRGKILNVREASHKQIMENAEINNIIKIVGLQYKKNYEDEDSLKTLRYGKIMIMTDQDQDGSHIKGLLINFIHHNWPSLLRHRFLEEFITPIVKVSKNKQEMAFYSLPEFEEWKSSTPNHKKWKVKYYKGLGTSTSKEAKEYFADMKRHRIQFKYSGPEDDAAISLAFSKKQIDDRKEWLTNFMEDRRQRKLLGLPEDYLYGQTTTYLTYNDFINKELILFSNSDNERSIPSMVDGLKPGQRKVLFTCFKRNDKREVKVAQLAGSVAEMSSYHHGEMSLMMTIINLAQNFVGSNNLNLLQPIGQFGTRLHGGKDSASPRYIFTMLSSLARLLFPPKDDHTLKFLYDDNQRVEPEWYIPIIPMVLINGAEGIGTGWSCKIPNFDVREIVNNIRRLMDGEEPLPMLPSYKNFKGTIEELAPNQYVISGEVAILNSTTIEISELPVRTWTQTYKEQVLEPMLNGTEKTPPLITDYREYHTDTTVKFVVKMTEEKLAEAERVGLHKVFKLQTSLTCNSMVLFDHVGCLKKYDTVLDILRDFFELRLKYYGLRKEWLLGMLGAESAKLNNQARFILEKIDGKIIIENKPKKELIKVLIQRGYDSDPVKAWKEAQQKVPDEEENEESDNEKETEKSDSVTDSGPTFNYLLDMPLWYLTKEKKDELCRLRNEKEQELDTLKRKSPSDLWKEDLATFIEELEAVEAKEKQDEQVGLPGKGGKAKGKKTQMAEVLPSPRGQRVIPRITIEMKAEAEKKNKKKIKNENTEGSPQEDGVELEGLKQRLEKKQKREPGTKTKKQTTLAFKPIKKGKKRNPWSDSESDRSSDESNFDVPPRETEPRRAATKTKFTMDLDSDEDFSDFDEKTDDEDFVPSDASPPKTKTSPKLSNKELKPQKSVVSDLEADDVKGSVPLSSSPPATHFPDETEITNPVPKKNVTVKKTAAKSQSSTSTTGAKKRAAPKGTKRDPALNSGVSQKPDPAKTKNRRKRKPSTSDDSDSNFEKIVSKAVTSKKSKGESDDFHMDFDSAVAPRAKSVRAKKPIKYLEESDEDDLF
- protocol-notes: Mammalian Topoisomerase II Inhibition Assay (stabilization of DNA-topo II covalent complex)
- Assay type: biochemical
- condition-label: concentration with activity equal to EC50 of mAMSA; 20 min, 37° C; read-out: Topo II EC50
observation-type: pEC50
pEC50 here is simply -log10 of the concentration when that concentration is written in mol/L.

Data request, read-out pEC50, for Cc1cc(-c2c(F)cc3c(=NN(C)C)ccn(C4CC4)c3c2F)cc(C)n1
5.64

CNN=c1ccn(C2CC2)c2c(F)c(-c3cc(C)nc(C)c3)c(F)cc12 , same question.
5.72

Cc1cc(-c2c(F)cc3c(=NNc4c5ccccc5nc5ccccc45)ccn(C4CC4)c3c2F)cc(C)n1 , same question.
4.55

Cc1cc(-c2c(F)cc3c(=NSc4ccc(Cl)cc4)ccn(C4CC4)c3c2F)cc(C)n1 , same question.
5.03

* * *

- experimental-system: human topoisomerase II (Homo sapiens, UniProt P11388)
- Construct: Topo II was purified from late log phase suspension cultures of HeLa WIS; endogenous in cells; host or cells: HeLa WIS (late log phase suspension cultures); enzyme purified from the cells
- protocol-notes: Mammalian Topoisomerase II Inhibition Assay (stabilization of DNA-topo II covalent complex)
- Format: biochemical
- condition-label: concentration with activity equal to EC50 of mAMSA; 20 min, 37° C; read-out: Topo II EC50
pEC50: −log10 of the molar value.
pEC50 below 5 gives false; pEC50 at or above it gives true.

[
  {
    "compound-structure": "Cc1cc(-c2c(F)cc3c(=NO)ccn(C4CC4)c3c2F)cc(C)n1",
    "cat": "true"
  },
  {
    "compound-structure": "Cc1cc(-c2c(F)cc3c(=NNc4cnc5ccccc5c4)ccn(C4CC4)c3c2F)cc(C)n1",
    "cat": "false"
  },
  {
    "compound-structure": "CSc1cc[n+](C2CC2)c2c(F)c(-c3cc(C)nc(C)c3)c(F)cc12",
    "cat": "false"
  },
  {
    "compound-structure": "Cc1cc(-c2c(F)cc3c(=NN4C(=O)c5ccccc5C4=O)ccn(C4CC4)c3c2F)cc(C)n1",
    "cat": "false"
  },
  {
    "compound-structure": "Cc1cc(-c2c(F)cc3c(=NSc4ccccn4)ccn(C4CC4)c3c2F)cc(C)n1",
    "cat": "true"
  }
]

Continue with the compound presented below.
Assess whether reported pEC50 for Cc1cc(-c2c(F)cc3c(=NNCCO)ccn(C4CC4)c3c2F)cc(C)n1 sits at 5 or higher.
true
